Target: T1, monomeric recombinant human Notch3 extracellular domain (containing EGF like domains 1-11) fusion protein (human, UniProt Q9UM47 40-467)
T1 construct: domain: EGF like domains 1-11; also called monomeric rhNotch3
T1 sequence (looked up): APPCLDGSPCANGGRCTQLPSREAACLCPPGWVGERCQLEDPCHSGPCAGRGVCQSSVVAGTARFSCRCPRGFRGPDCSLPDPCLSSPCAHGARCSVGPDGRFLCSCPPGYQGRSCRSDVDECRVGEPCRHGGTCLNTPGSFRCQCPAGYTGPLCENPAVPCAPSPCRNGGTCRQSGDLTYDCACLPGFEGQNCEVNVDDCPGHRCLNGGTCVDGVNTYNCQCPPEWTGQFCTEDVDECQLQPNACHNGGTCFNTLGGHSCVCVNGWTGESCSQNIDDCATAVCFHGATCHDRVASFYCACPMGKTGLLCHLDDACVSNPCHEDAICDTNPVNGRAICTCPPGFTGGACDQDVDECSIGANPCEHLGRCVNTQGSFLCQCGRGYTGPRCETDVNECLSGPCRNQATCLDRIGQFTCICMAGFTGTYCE
Assay: SPR BIAcore T100, monomeric rhNotch3 analyte, 37 C, average of Table 16 and additional measurements
measurement type: pKd
Numbers only, as −log10 of the molar value.

Prompt: What value of pKd has been reported for the following binder? Hu4F11-76 (antibody, human IgG1, kappa, V domains shown, Humanized, human IgG1 kappa; Hv3-23 S31H T62S heavy + Kv2D-29 N28Y kappa) VH: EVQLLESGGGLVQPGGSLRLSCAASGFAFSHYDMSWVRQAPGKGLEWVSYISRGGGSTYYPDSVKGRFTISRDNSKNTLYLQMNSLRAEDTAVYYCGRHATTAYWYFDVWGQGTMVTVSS VL: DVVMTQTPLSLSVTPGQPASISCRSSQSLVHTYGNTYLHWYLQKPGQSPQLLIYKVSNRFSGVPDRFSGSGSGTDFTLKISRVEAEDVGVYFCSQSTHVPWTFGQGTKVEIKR
Completion: 8.09
